System: LOC_OS02G14120-cb001;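 further: purified Escherichia coli-expressed rice kinase domain construct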
Assay: thermal shift delta Tm vs DMSO control; higher = stronger stabilization (binding)
Conditions: 12.5 µM; protein concentration 2 µM
quantity.kind: thermal shift delta Tm (°C)
Please reply with the bare figure in °C and do not write the unit itself.

Completed entries (count: 8):
COc1cc2nccc(Oc3ccc(NC(=O)C4(C(=O)Nc5ccc(F)cc5)CC4)cc3)c2cc1OC [Cabozantinib malate (XL184)]    0.46
CNC(=O)c1ccc(-c2cnc3ncc(Cc4ccc5ncccc5c4)n3n2)cc1F    -0.02
Cn1sc(=O)n(Cc2ccccc2)c1=O    -0.52
O=C1NC(=O)C(c2cnc3ccccn23)=C1c1cn2c3c(cc(F)cc13)CN(C(=O)N1CCCCC1)CC2    0.04
O=C1NC(=O)/C(=C/c2cccc(C(F)(F)F)c2)S1    -0.36
CCCCCCCCCC(=O)CC(O)S(=O)(=O)O (centres undefined) [Sodium Houttuyfonate]    -0.08
O=C1NC(=O)/C(=C/c2ccc(-c3ccc(F)cc3O)o2)S1    2.56
C[C@@H](Oc1ccc2[nH]nc(/C=C/c3cnn(CCO)c3)c2c1)c1c(Cl)cncc1Cl    15

**Query** Answer with the recorded thermal shift delta Tm for the compound listed here: "CN1CCN(c2ccc(Nc3cc(-c4cccc(-n5ccc6cc(C7CC7)cc(F)c6c5=O)c4CO)cn(C)c3=O)nc2)CC1"
**Result** 0.2

This collection of values is drawn from the supplement of paper PMC9694430.
